Where do the numbers come from? From ChEMBL document CHEMBL5058577.

Listing of recorded Population Fragmented Nuclei (%) by entry.
Tested on: U2OS
test.name: Multiplex assay against U2OS
Assay type: toxicity, cell-based
conditions: human, 24 h, 10 µM, compound concentration 10 uM, replicate 2
measured.property: Population Fragmented Nuclei (%)

- compound: "C[C@@H]1CC(=O)Nc2cccc(-c3ccc4c(c3)c(-c3cnn(C)c3)nn4C)c2N1"
  tested.target: "U2OS"
  measured.property: "Population Fragmented Nuclei (%)"
  unit.abbrev: "%"
  recorded.result: 15
- compound: "O=c1ccc2ccc(OCCCCN3CCN(c4cccc5sccc45)CC3)cc2[nH]1"
  tested.target: "U2OS"
  measured.property: "Population Fragmented Nuclei (%)"
  unit.abbrev: "%"
  recorded.result: 19
- compound: "COc1cc(Nc2ncc3c(n2)-c2ccc(Cl)cc2C(c2c(F)cccc2OC)=NC3)ccc1C(=O)O"
  tested.target: "U2OS"
  measured.property: "Population Fragmented Nuclei (%)"
  unit.abbrev: "%"
  recorded.result: 12
- compound: "N[C@](CC1c2ccccc2Oc2ccccc21)(C(=O)O)[C@H]1C[C@@H]1C(=O)O"
  tested.target: "U2OS"
  measured.property: "Population Fragmented Nuclei (%)"
  unit.abbrev: "%"
  recorded.result: 15
- compound: "Nc1nc(CC(=O)Nc2ccc(CCNC[C@H](O)c3ccccc3)cc2)cs1"
  tested.target: "U2OS"
  measured.property: "Population Fragmented Nuclei (%)"
  unit.abbrev: "%"
  recorded.result: 20
- compound: "Cc1cc(O)c(-c2ccc([C@@H](C)CN(C)C)cc2)c2c1[nH]c(=O)c1sccc12"
  tested.target: "U2OS"
  measured.property: "Population Fragmented Nuclei (%)"
  unit.abbrev: "%"
  recorded.result: 40
- compound: "CC(C)C[C@H](CO)Nc1nc(S[C@@H](C)c2ccccc2)nc2nc(N)sc12"
  tested.target: "U2OS"
  measured.property: "Population Fragmented Nuclei (%)"
  unit.abbrev: "%"
  recorded.result: 7
- compound: "CCCCCCNC(=O)Nc1ccc(S(=O)(=O)Nc2ccc(CCNC[C@H](O)COc3ccc(O)cc3)cc2)cc1"
  tested.target: "U2OS"
  measured.property: "Population Fragmented Nuclei (%)"
  unit.abbrev: "%"
  recorded.result: 14
- compound: "CCCCC[C@H](O)/C=C/[C@H]1[C@H](O)CC(=O)[C@@H]1CCCCCCC(=O)O"
  tested.target: "U2OS"
  measured.property: "Population Fragmented Nuclei (%)"
  unit.abbrev: "%"
  recorded.result: 12
- compound: "CN(C)C(=O)Cn1cc(-c2ccc(-c3nnc4ccccn34)cc2)cn1"
  tested.target: "U2OS"
  measured.property: "Population Fragmented Nuclei (%)"
  unit.abbrev: "%"
  recorded.result: 10
- compound: "COCCCN1CCC(NC(=O)c2cc(Cl)c(N)c3c2OCC3)CC1 [PRUCALOPRIDE]"
  tested.target: "U2OS"
  measured.property: "Population Fragmented Nuclei (%)"
  unit.abbrev: "%"
  recorded.result: 12
- compound: "CN1CCN(c2ccc(Nc3c4ccccc4nc4ccccc34)cc2)CC1.Cl.Cl.O"
  tested.target: "U2OS"
  measured.property: "Population Fragmented Nuclei (%)"
  unit.abbrev: "%"
  recorded.result: 69
- compound: "CC(C)(C)c1ccc(CSc2cnn(C(C)(C)C)c(=O)c2Cl)cc1"
  tested.target: "U2OS"
  measured.property: "Population Fragmented Nuclei (%)"
  unit.abbrev: "%"
  recorded.result: 19
- compound: "Cc1cc(NC(=O)NCCN2CCC(O)(Cc3ccccc3)CC2)c2ccccc2n1"
  tested.target: "U2OS"
  measured.property: "Population Fragmented Nuclei (%)"
  unit.abbrev: "%"
  recorded.result: 19
- compound: "O=C(Nc1cc(-c2ccccc2)nn1-c1ccccc1F)c1ccc([N+](=O)[O-])cc1"
  tested.target: "U2OS"
  measured.property: "Population Fragmented Nuclei (%)"
  unit.abbrev: "%"
  recorded.result: 14
- compound: "OCCCNc1cc(-c2ccnc(Nc3cccc(Cl)c3)n2)ccn1"
  tested.target: "U2OS"
  measured.property: "Population Fragmented Nuclei (%)"
  unit.abbrev: "%"
  recorded.result: 30
- compound: "CCn1c(-c2nc3cc(C(=O)N4CCCC(N)C4)ccc3n2C)cc2ccccc21.Cl (stereo not drawn)"
  tested.target: "U2OS"
  measured.property: "Population Fragmented Nuclei (%)"
  unit.abbrev: "%"
  recorded.result: 19
- compound: "COc1cc(OC2CCN(C(C)=O)CC2)ccc1C(=O)N1CCC(N2C(=O)OCc3ccccc32)CC1"
  tested.target: "U2OS"
  measured.property: "Population Fragmented Nuclei (%)"
  unit.abbrev: "%"
  recorded.result: 12
